Data provenance is PubChem BioAssay AID1159580.

Assay: chemical genetic growth profiling, strain panel (AID 1159580);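 further: tested at 20 µM; growth read once vehicle control cultures reached saturation at 30 °C; lower values mean less growth of the strain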
Settings: S. cerevisiae deletion strains, growth OD, locus YBR023C, strain chs3, active compounds read low
About 2,000 (36%) of roughly 5,500 compounds were called active. Another 18% or so got no clear call; they are omitted. This is one part of the list.
Under this convention, rule met denotes normalized growth strictly below 1 and rule not met denotes normalized growth at or above 1.

| smiles-str | class |
| --- | --- |
| NC(=O)CC[C@@H](N)C(=O)O | rule not met |
| O=c1cc(-c2cccc(O)c2)oc2ccc(O)cc12 | rule met |

Continue with the next molecule.
Ask: Hi there! Is normalized growth for O=c1cc(-c2ccc(O)c(O)c2)oc2ccccc12 below 1, do you know?
Result: rule met
